Molecular target: CDK2 (UniProt P24941)
Assay: Enzyme Assay
measured_attribute: IC50 (µM)
Answer format: numeric, µM implied, no suffix.

-- ask Query: IC50; subject: "COc1ccc(CNc2nc(NCCCNC(=O)[C@H]3CSC(=O)N3)nc3c2ncn3C(C)C)cc1"
-- reply 2
